Cited source for all entries: patent US20260116921A1

# assayOverview: in vitro
# Type: in vitro ADME
# Design: dose or concentration left out as unconfirmed
# conditions: simulated intestinal fluid (SIF) with pancreatin, pH 6.8, 37° C., § matrix is 100 fold dilution of standard SIF concentration, read-out: SIF t½ (converted)
Bridge positions count the residues as written; N and C are the ends. Square brackets hold non-standard residues; d marks the D form. Peptide text beside a SMILES is read from it. Trp(7-Me) = Cc1cccc2c(C[C@H](N)C(=O)O)c[nH]c12; Trp(1-Me) = Cn1cc(C[C@H](N)C(=O)O)c2ccccc21; 2Nal = N[C@@H](Cc1ccc2ccccc2c1)C(=O)O; AEF = NCCOc1ccc(C[C@H](N)C(=O)O)cc1; Cit = NC(=O)NCCC[C@H](N)C(=O)O; Pen = CC(C)(S)[C@H](N)C(=O)O; αMeK = C[C@](N)(CCCCN)C(=O)O; βAla = NCCC(=O)O
Here the recorded half-life is given for each entry.

>  <compound>
CC(=O)NCCCC[C@H](NC(=O)[C@](C)(CCCCN)NC(=O)[C@H](Cc1ccc2ccccc2c1)NC(=O)[C@H](Cc1ccc(OCCN)cc1)NC(=O)[C@H]1NC(=O)[C@H](CCCCNC(=O)C(C)(C)N)NC(=O)[C@H](Cc2c[nH]c3c(C)cccc23)NC(=O)[C@H]([C@@H](C)O)NC(=O)[C@H](CC(N)=O)NC(=O)[C@@H](NC(C)=O)C(C)(C)SSC1(C)C)C(=O)N[C@@H](CC(N)=O)C(=O)N[C@H](CC(C)C)C(N)=O [compound 322]

>  <half-life>
1 h

$$$$
>  <compound>
CC(=O)N[C@H]1CCSC[C@@H](C(=O)N[C@@H](Cc2ccc(OCCN)cc2)C(=O)N[C@@H](Cc2ccc3ccccc3c2)C(=O)NC2(C(=O)N[C@@H](CCC(=O)O)C(=O)N[C@@H](CC(N)=O)C(=O)NCCC(N)=O)CCOCC2)NC(=O)[C@H](CCC(N)=O)NC(=O)[C@H](Cc2c[nH]c3c(C)cccc23)NC(=O)[C@H]([C@@H](C)O)NC(=O)[C@H](CCC(N)=O)NC1=O [compound 204]

>  <half-life>
19 h

$$$$
>  <compound>
CC(=O)NCCCC[C@H](NC(=O)[C@](C)(CCCCN)NC(=O)[C@H](Cc1ccc2ccccc2c1)NC(=O)[C@H](Cc1ccc(OCCN)cc1)NC(=O)[C@H]1NC(=O)[C@H](CCCCNC(=O)C2CCCCC2)NC(=O)[C@H](Cc2c[nH]c3c(C)cccc23)NC(=O)[C@H]([C@@H](C)O)NC(=O)[C@H](CC(N)=O)NC(=O)[C@@H](NC(C)=O)C(C)(C)SSC1(C)C)C(=O)N[C@@H](CC(N)=O)C(=O)N[C@H](CC(C)C)C(N)=O [compound 316]

>  <half-life>
7 h

$$$$
>  <compound>
CC(=O)NCCCC[C@H](NC(=O)[C@](C)(CCCCN)NC(=O)[C@H](Cc1ccc2ccccc2c1)NC(=O)[C@H](Cc1ccc(OCCN)cc1)NC(=O)[C@H]1NC(=O)[C@H](CCCNC(N)=O)NC(=O)[C@H](Cc2c[nH]c3c(C)cccc23)NC(=O)[C@H]([C@@H](C)O)NC(=O)[C@H](CC(N)=O)NC(=O)[C@@H](NC(C)=O)C(C)(C)SSC1(C)C)C(=O)N[C@@H](CC(N)=O)C(=O)N[C@H](Cc1ccc(O)cc1)C(N)=O [compound 259] (Ac-[Pen]NT[Trp(7-Me)][Cit][Pen][AEF][2Nal][αMeK]K(Ac)N[dY]-NH2; disulfide 1-6)

>  <half-life>
12 h

$$$$
>  <compound>
CC(=O)NCCCC[C@H](NC(=O)[C@](C)(CCCCN)NC(=O)[C@H](Cc1ccc2ccccc2c1)NC(=O)[C@H](Cc1ccc(OCCN)cc1)NC(=O)[C@H]1NC(=O)[C@H](CCCNC(N)=O)NC(=O)[C@H](Cc2cn(C)c3ccccc23)NC(=O)[C@H]([C@@H](C)O)NC(=O)[C@H](CC(N)=O)NC(=O)[C@@H](NC(C)=O)C(C)(C)SSC1(C)C)C(=O)NCCC(=O)NCCC(N)=O [compound 280] (Ac-[Pen]NT[Trp(1-Me)][Cit][Pen][AEF][2Nal][αMeK]K(Ac)[βAla][βAla]-NH2; disulfide 1-6)

>  <half-life>
8 h

$$$$

* * *

List of half-life at 20 μM values.
# assayOverview: in vitro
# conditions: human, 20% fecal homogenate (supernatant), anaerobic, pH 6.8
property: half-life at 20 μM (min)

>  <smilesEntry>
CC(=O)NCCCC[C@@H]1NC(=O)[C@H](Cc2c[nH]c3c(C)cccc23)NC(=O)[C@H]([C@@H](C)O)NC(=O)[C@H](CC(N)=O)NC(=O)[C@@H](NC(C)=O)C(C)(C)SSC(C)(C)[C@@H](C(=O)N[C@@H](Cc2ccc(OCCN)cc2)C(=O)N[C@@H](Cc2ccc3ccccc3c2)C(=O)N[C@@](C)(CCCCN)C(=O)N[C@@H](CCCCNC(C)=O)C(=O)N[C@@H](CC(N)=O)C(=O)N2CCC[C@@H]2C(N)=O)NC1=O

>  <valueUnits>
min

>  <qualifierOperator>
>

>  <observedResult>
1440

$$$$
>  <smilesEntry>
CC(=O)NCCCC[C@H](NC(=O)[C@](C)(CCCCN)NC(=O)[C@H](Cc1ccc2ccccc2c1)NC(=O)[C@H](Cc1ccc(OCCN)cc1)NC(=O)[C@H]1NC(=O)[C@H](CCC(N)=O)NC(=O)[C@H](Cc2cn(C)c3ccccc23)NC(=O)[C@H]([C@@H](C)O)NC(=O)[C@H](CC(N)=O)NC(=O)[C@@H](NC(C)=O)C(C)(C)SSC1(C)C)C(=O)N[C@@H](CC(N)=O)C(=O)NCCC(N)=O

>  <valueUnits>
min

>  <qualifierOperator>
>

>  <observedResult>
1440

$$$$
>  <smilesEntry>
CC(=O)N[C@@H]1C(=O)N[C@@H](CC(N)=O)C(=O)N[C@@H]([C@@H](C)O)C(=O)N[C@@H](Cc2c[nH]c3c(C)cccc23)C(=O)N[C@@H](CCC(N)=O)C(=O)N[C@H](C(=O)N[C@@H](Cc2ccc(OCCN)cc2)C(=O)N[C@@H](Cc2ccc3ccccc3c2)C(=O)N[C@@](C)(CC(C)C)C(=O)NCC(=O)N2CCC[C@H]2C(=O)NCCC(N)=O)C(C)(C)SSC1(C)C

>  <valueUnits>
min

>  <qualifierOperator>
=

>  <observedResult>
960

$$$$
>  <smilesEntry>
CC(=O)NCCCC[C@H](NC(=O)[C@](C)(CC(C)C)NC(=O)[C@H](Cc1ccc2ccccc2c1)NC(=O)[C@H](Cc1ccc(OCCN)cc1)NC(=O)[C@H]1NC(=O)[C@H](CCC(N)=O)NC(=O)[C@H](Cc2c[nH]c3cc(C)ccc23)NC(=O)[C@H]([C@@H](C)O)NC(=O)[C@H](CC(N)=O)NC(=O)[C@@H](NC(C)=O)C(C)(C)SSC1(C)C)C(=O)N[C@@H](CC(N)=O)C(=O)N[C@@H](CC(N)=O)C(N)=O

>  <valueUnits>
min

>  <qualifierOperator>
=

>  <observedResult>
360

$$$$
>  <smilesEntry>
COc1cccc2[nH]cc(C[C@@H]3NC(=O)[C@H]([C@@H](C)O)NC(=O)[C@H](CC(N)=O)NC(=O)[C@@H](NC(C)=O)C(C)(C)SSC(C)(C)[C@@H](C(=O)N[C@@H](Cc4ccc(OCCN)cc4)C(=O)N[C@@H](Cc4ccc5ccccc5c4)C(=O)N[C@@](C)(CCCCN)C(=O)N[C@@H](CCCCNC(C)=O)C(=O)N[C@@H](CC(N)=O)C(=O)NCCC(N)=O)NC(=O)[C@H](CCC(N)=O)NC3=O)c12

>  <valueUnits>
min

>  <qualifierOperator>
>

>  <observedResult>
1440

$$$$

* * *

# assayOverview: in vitro
# conditions: cynomolgus monkey, 20% fecal homogenate (supernatant), anaerobic, pH 6.8
Bridge positions count the residues as written; N and C are the ends. Square brackets hold non-standard residues; d marks the D form. Peptide text beside a SMILES is read from it. Trp(7-Me) = Cc1cccc2c(C[C@H](N)C(=O)O)c[nH]c12; 2Nal = N[C@@H](Cc1ccc2ccccc2c1)C(=O)O; AEF = NCCOc1ccc(C[C@H](N)C(=O)O)cc1; Cit = NC(=O)NCCC[C@H](N)C(=O)O; Pen = CC(C)(S)[C@H](N)C(=O)O; αMeK = C[C@](N)(CCCCN)C(=O)O
property: half-life at 20 μM

>  <compound>
CC(=O)NCCCC[C@H](NC(=O)[C@](C)(CCCCN)NC(=O)[C@H](Cc1ccc2ccccc2c1)NC(=O)[C@H](Cc1ccc(OCCN)cc1)NC(=O)[C@H]1NC(=O)[C@H](CCCNC(N)=O)NC(=O)[C@H](Cc2c[nH]c3c(C)cccc23)NC(=O)[C@H]([C@@H](C)O)NC(=O)[C@H](CC(N)=O)NC(=O)[C@@H](NC(C)=O)C(C)(C)SSC1(C)C)C(=O)N[C@@H](CC(N)=O)C(=O)N[C@H](CCCNC(=N)N)C(N)=O [compound 256] (Ac-[Pen]NT[Trp(7-Me)][Cit][Pen][AEF][2Nal][αMeK]K(Ac)N[dR]-NH2; disulfide 1-6)

>  <property>
half-life at 20 μM

>  <observedResult>
> 1440 min

$$$$
>  <compound>
CC(=O)NCCCC[C@H](NC(=O)[C@](C)(CC(C)C)NC(=O)[C@H](Cc1ccc2ccccc2c1)NC(=O)[C@H](Cc1ccc(OCCN)cc1)NC(=O)[C@H]1NC(=O)[C@H](CCC(N)=O)NC(=O)[C@H](Cc2c[nH]c3c(C)cccc23)NC(=O)[C@H]([C@@H](C)O)NC(=O)[C@H](CC(N)=O)NC(=O)[C@@H](NC(C)=O)C(C)(C)SSC1(C)C)C(=O)N[C@H](CC(C)C)C(=O)NCCC(N)=O

>  <property>
half-life at 20 μM

>  <observedResult>
> 1440 min

$$$$
